Values were extracted from PubChem BioAssay (NCI).

- Tested on: COLO 205 colon
- PROTOCOL_DETAILS: NCI-60 one-dose screen, 48 h (100 = growth as untreated, 0 = no growth, -100 = all killed)
- COND: 10 µM unless noted
The panel holds about 83,000 compounds, 20% with a hit somewhere; the sample as a whole holds those more often.
OBSERVED_PROPERTY: growth (%)

| CHEM_SMILES | VALUE_OBSERVED |
| --- | --- |
| Cc1ccc(OC(=O)c2ccccc2)cc1 | 96.1 |
| Cc1ccc(N)c(S(=O)(=O)O)c1 | 106 |
| COc1ccc2c(ccc[n+]2C)c1 | 111 |
| CCCCCCCCCCCCCCCCCCSC(=N)N | 3.95 |
| CC1(C)CC(=O)C=C(N)C1 | 134 |
| CCCCc1ccc2nc(NC(=O)OC)[nH]c2c1 | -45.8 |
| CC(C)NC(=O)OCc1c(COC(=O)NC(C)C)c(-c2ccc(Cl)cc2)n2c1CCC2 | 57.2 |

###

- Tested on: K-562 leukemia
- PROTOCOL_DETAILS: NCI-60 one-dose screen, 48 h
- COND: 10 µM unless noted
- Description: Cells are grown in 96 well plates and exposed to the test compound for 48 hours. Compounds are tested at a single concentration, which is 10^-5 M for most compounds. The reported endpoint is percent growth (GI% or GIPRCNT), where numbers from 0 - 100% represent growth inhibition, and numbers from -100% - 0 represent cell death. For example, a value of 40 represents 60% growth inhibition. A value of 0 means no net growth occurred over the course of the experiment. […]
Compounds without any hit were thinned out: in the full panel of roughly 83,000, 20% have a hit. Calls of active or inactive are those of the source. How the source made its calls: active means growth percent below 10; inactive means the rest.
Outcome codes: active, inactive

| COMPOUND | QUALITATIVE_LABEL |
| --- | --- |
| FC(F)(F)c1cc(NC2=NCCN=C(Nc3cc(C(F)(F)F)cc(C(F)(F)F)c3)SS2)cc(C(F)(F)F)c1 | inactive |
| Clc1cccc(Cl)c1C1CSc2ccccc2N=C1c1ccccc1 (centres undefined) | active |
| Cc1[nH]c(=S)[nH]c(=O)c1C | inactive |
| O=C(NCc1ccco1)Nc1cccc2c(NC(=O)NCc3ccco3)cccc12 | inactive |
| CCOP(=O)(NC(c1ccccc1)c1ccccc1)OCC | inactive |
| Cc1ccc(C(C)C)c(OCC(=O)O)c1 | inactive |
| C=COC(=O)CCOCC(CC)CCCC (centres undefined) | inactive |
| COc1ccc(C2CC(c3ccccc3)=Nc3ccccc3S2)cc1 (centres undefined) | inactive |
| CC(=O)C1C(=O)C(=O)N(c2cccc([N+](=O)[O-])c2)C1=O (centres undefined) | inactive |
| CCCCCC/C=C\CCCCCCCCCc1cc(O)cc(OC)c1O | active |
| Nc1ccc(F)c(Cl)c1F | inactive |
| NC(CSSCC(N)C(=O)O)C(=O)O (centres undefined) | inactive |
| CC(C)c1ncc([N+](=O)[O-])n1C | inactive |
| O=CNCCc1ccccc1 | inactive |
| OCCOc1ccc(-c2cc(-c3ccccn3)nc(-c3ccccn3)c2)cc1 | active |
| CCOC(=O)Nc1nccs1 | inactive |
| C=CCNC(=S)N/C=C(/C(=O)c1ccccc1)c1ccccc1 | inactive |
| C/C(O)=C(/C=N/C(=S)Nc1ccccc1)C(=O)Nc1ccccc1C | inactive |
| CC(=O)c1cccs1 | inactive |
| C[n+]1cc2cc3c(cc2c2ccccc21)OCO3 | inactive |
| Cc1nc(O)cc(=O)[nH]1 | inactive |
| O=C1C=C(c2ccccc2)C(O)(c2ccccc2)C1 (centres undefined) | inactive |
| CCNCC(C)(C)O | inactive |
| COC(=O)c1cccc([N+](=O)[O-])c1 | inactive |

###

- Tested on: DU-145 prostate
- PROTOCOL_DETAILS: NCI-60 one-dose screen, 48 h (100 = growth as untreated, 0 = no growth, -100 = all killed)
- COND: 10 µM unless noted
- Protocol: Cells are grown in 96 well plates and exposed to the test compound for 48 hours. Compounds are tested at a single concentration, which is 10^-5 M for most compounds. The reported endpoint is percent growth (GI% or GIPRCNT), where numbers from 0 - 100% represent growth inhibition, and numbers from -100% - 0 represent cell death. For example, a value of 40 represents 60% growth inhibition. A value of 0 means no net growth occurred over the course of the experiment. […]
The panel holds about 83,000 compounds, 20% with a hit somewhere; the sample as a whole holds those more often.

| COMPOUND | MEASUREMENT_TARGET | growth, % |
| --- | --- | --- |
| CCN(CC)CCCC(C)NC(=S)N/N=C(\C)c1ccccn1 (stereo not given) | DU-145 prostate | 42.1 |
| Cc1ccc(N)c(S(=O)(=O)O)c1 | DU-145 prostate | 125 |
| O=C(OC1CCCC1)c1ccccc1Cl | DU-145 prostate | 109 |
| NNc1ncnc2nc[nH]c12 | DU-145 prostate | 36.6 |
| O=C1CSc2ccccc2N1 | DU-145 prostate | 116 |
| NNc1ncccn1 | DU-145 prostate | 116 |
| C=CC(C)C(C)(C)O (stereo not given) | DU-145 prostate | 105 |
| CCCCCC/C=C\CCCCCCCCCc1cc(O)cc(OC)c1O | DU-145 prostate | 26 |
| OCCNc1ccccc1 | DU-145 prostate | 103 |
| S=C(Sc1ccc(Cl)cc1)Sc1ccc(Cl)cc1 | DU-145 prostate | 17.2 |
| O=C(c1ccccc1)c1ccc(-c2ccc(O)cc2)cc1 | DU-145 prostate | 69.8 |
| Cc1cc(Cc2ccccc2)c(O)c(Cc2ccccc2)c1 | DU-145 prostate | 103 |
| c1cc(CNCCNCc2ccncc2)ccn1 | DU-145 prostate | 115 |
| CC(C)C(=O)OCCOc1ccc(C(C)(C)C)cc1 | DU-145 prostate | 104 |
| ClCC(Cl)C1CCC(Cl)C(Cl)C1 (stereo not given) | DU-145 prostate | 102 |
| CCCCNC(=O)c1ccc(OCC)cc1 | DU-145 prostate | 108 |
| CCNc1ncnc2[nH]ncc12 | DU-145 prostate | 117 |
| O=C(NC1CCCCC1)c1ccc(Cl)cc1 | DU-145 prostate | 103 |
| CCC(=O)Oc1ccc2ccccc2c1 | DU-145 prostate | 113 |
| CC(C)c1ncc([N+](=O)[O-])n1C | DU-145 prostate | 122 |
| Cc1ccc(N2C(=O)c3cccc4c(N)c(S(=O)(=O)O)cc(c34)C2=O)cc1 | DU-145 prostate | 120 |
| COC1C(=O)CCC2(CO2)C1(O)C1(C)OC1CCC(C)C (stereo not given) | DU-145 prostate | 48.7 |
| CCOC(=O)c1ccc(C(C)(C)C)cc1 | DU-145 prostate | 104 |
| OC1Cc2ccccc2C1 | DU-145 prostate | 103 |
| CC(=O)c1cc(O)ccc1O | DU-145 prostate | 114 |
| CCN(C(C)=O)c1ccc([N+](=O)[O-])cc1 | DU-145 prostate | 110 |
| CCCCN(C=S)CCCC | DU-145 prostate | 112 |
| CNc1ccccc1C(=O)N/N=C/C=C/c1ccccc1 | DU-145 prostate | 14.9 |
| CCCCCCCCCc1ccc(OC(C)=O)cc1 | DU-145 prostate | 103 |
| COc1cccc2c1Cc1ccccc1-2 | DU-145 prostate | 106 |

###

- System: SN12C renal
- PROTOCOL_DETAILS: NCI-60 one-dose screen, 48 h (100 = growth as untreated, 0 = no growth, -100 = all killed)
- COND: 10 µM unless noted
Compounds without any hit were thinned out: in the full panel of roughly 83,000, 20% have a hit.
OBSERVED_PROPERTY: growth (%)

| MOLECULE | VALUE_UNIT | VALUE_OBSERVED |
| --- | --- | --- |
| O=[N+]([O-])c1c(Cl)ncnc1Cl | % | 111 |
| O=C1NC(=O)C(c2ccccc2)O1 (centres undefined) | % | 103 |
| CC(=O)[C@@]1(O)CC[C@H]2[C@@H]3CC[C@@H]4CC(=O)CC[C@]4(C)[C@H]3[C@@H](O)C[C@@]21C | % | 95.4 |
| O=C(O)CSCC(=O)Nc1cc(C(F)(F)F)ccc1Cl | % | 102 |
| CC(C)OCC(CCl)OC(=O)Nc1ccccc1 (centres undefined) | % | 96.7 |
| CC(C)(CC(=O)O)CC(=O)O | % | 97.2 |
| OCCNc1ccccc1 | % | 108 |
| O=Cc1ccc(F)cc1 | % | 98 |
| Cc1onc(-c2c(F)cccc2Cl)c1-c1ncc(-c2ccc(Br)cc2)o1 | % | 34 |
| CC(C)(C)CC1(C)NC(=O)NC1=O (centres undefined) | % | 110 |
| NC(CO)(CO)c1ccccc1 | % | 108 |
| Cc1nc(C)c(C(=O)O)cc1C(=O)O | % | 125 |
| Oc1cc2ccccc2c(-c2c(O)c(O)cc3ccccc23)c1O | % | 49.3 |
| Cc1cc2c(C(C)C)c(O)c(O)c(C=Nc3ccccc3[N+](=O)[O-])c2c(O)c1-c1c(C)cc2c(C(C)C)c(O)c(O)c(C=Nc3ccccc3[N+](=O)[O-])c2c1O | % | 84.9 |
| CCC(/C=C\C(C)=O)CC | % | 98.3 |
| O=C(OCC1CCCO1)c1ccc([N+](=O)[O-])cc1 (centres undefined) | % | 95.3 |
| CC(O)C(F)(F)C(F)(F)C(F)(F)F (centres undefined) | % | 110 |
| CN1CCCN(C(c2ccccc2)c2ccc(Cl)cc2)CC1 (centres undefined) | % | 101 |
| C=C1C(=O)C2CCN1CC2 | % | 101 |
| NC(=O)N1CCOCC1 | % | 109 |
| NC(=O)OCCO | % | 105 |
| COc1cc(OC)c(NC(=O)C(Sc2nc(C)cc(C)c2C#N)c2ccccc2)cc1Cl (centres undefined) | % | 98.5 |
| Cc1ccc2[nH]c3ccccc3c2c1 | % | 109 |
| CCOC(=O)c1c[nH][nH]c1=O | % | 104 |
| COC(=O)C1=C(C)C(=O)CC1 | % | 98.3 |
| CC(=O)c1cc(O)ccc1O | % | 97.4 |
| CCCCCCCCNC(=O)C(C)C | % | 95.8 |
| CC(=O)NC(CCc1ccc(Cl)c(Cl)c1)c1cccc(O)c(=O)c1 (centres undefined) | % | 12.4 |
| CCc1ccccc1C(=O)N(CC)CC | % | 105 |
| CCCCN(C=S)CCCC | % | 97.5 |
| COc1nc(Nc2cccc(C(F)(F)F)c2)nc(OC)n1 | % | 102 |
| Nc1ccccc1SC1CC(=O)N(c2ccc(Cl)c(Cl)c2)C1=O (centres undefined) | % | 115 |
| COC(=O)C1(CC(C)=O)NC(=S)NC(=O)C1C#N (centres undefined) | % | 101 |
| COc1ccc2c(ccc[n+]2C)c1 | % | 104 |
| CC(=O)OCC1CCC(COC(C)=O)CC1 (centres undefined) | % | 110 |
| CCOC(=N)CC(=O)Nc1cccc(C)c1Cl | % | 98.6 |
| NC(=S)N/N=C/c1ccc(OC(=O)COc2ccc(Cl)cc2)cn1 | % | 28.2 |
| O=C1CSc2ccccc2N1 | % | 100 |
| CSCC[C@@H]1C(=O)N(C)[C@H](C(C)(C)C)N1C(=O)c1ccccc1 | % | 104 |
| Nc1ccc(F)cc1F | % | 100 |
| Cc1ccc2nc(-c3ccc(N=Cc4ccccc4O)cc3)sc2c1 | % | 90.4 |
| CC(=O)N=c1ccc2nc3c(cc(N)c4ccccc43)oc-2c1 | % | -72.8 |
| COc1ccc(Br)c2c1C(=O)CC2 | % | 91.8 |
| C=COC(=O)CCOCC(CC)CCCC (centres undefined) | % | 104 |
| C1Cc2onc(-c3noc4c3CCC4)c2C1 | % | 96.2 |
| COc1cccc(C(=O)O)c1OC | % | 96.6 |
| Clc1ccc(/C=C/c2ccccn2)cc1 | % | 108 |
| c1ccc(Nc2ccccn2)nc1 | % | 96.8 |
| c1ccc(Oc2c3ccccc3nc3ccccc23)cc1 | % | 24.3 |
| O=[N+]([O-])c1ccc2[nH]c(=S)n(/C=C(/c3ccc(Cl)cc3Cl)S(=O)(=O)Cc3ccc(Cl)cc3Cl)c2c1 | % | 94.6 |
| COc1ccc(/C=N/NC(=O)COCC(=O)N/N=C/c2ccc(OC)cc2)cc1 | % | 99 |
| COc1cc(C(=O)NC(=S)NCc2ccncc2)cc(OC)c1OC | % | 102 |
| ClCC(Cl)C1CCC(Cl)C(Cl)C1 (centres undefined) | % | 104 |
| Cc1ccc(O)c(N)c1 | % | 107 |
